# Test system: P388
# Protocol Text: Antiproliferative activity against mouse P388 cell line by MTT assay at 4 ug/ml
# Assay type: functional
# Cond: read-out: ID50 (the source's name)
Readout: IC50 (µg/mL)
Report the figure in µg/mL without appending any unit label.

Q) Tell me IC50 reported for O=C1c2ccccc2C(=O)c2c(NCCNP34=NP(Cl)(=NP(Cl)(Cl)=N3)OCCOCCOCCOCCO4)cccc21 (stereo not drawn)
A) 32.8

Q) Tell me IC50 reported for O=Cc1ccccc1OP12=NP(Oc3ccccc3C=O)(Oc3ccccc3C=O)=NP(NCCNc3cccc4c3C(=O)c3ccccc3C4=O)(=N1)OCCOCCOCCOCCO2 (stereo not drawn)
A) 2.9

Q) Tell me IC50 reported for O=C1c2ccccc2C(=O)c2c(NCCNP34=NP(NCCCl)(=NP(NCCCl)(NCCCl)=N3)OCCOCCOCCOCCO4)cccc21 (stereo not drawn)
A) 19.4

Q) Tell me IC50 reported for O=C1c2ccccc2C(=O)c2c(NCCNP34=NP(Oc5ccccc5/C=N\CCCl)(=NP(Oc5ccccc5/C=N\CCCl)(Oc5ccccc5/C=N\CCCl)=N3)OCCOCCOCCOCCO4)cccc21 (stereo not drawn)
A) 2.16

Q) Tell me IC50 reported for O=Cc1ccccc1OP12=NP(Oc3ccccc3C=O)(=NP(Oc3ccccc3C=O)(Oc3ccccc3C=O)=N1)OCCOCCOCCOCCO2 (stereo not drawn)
A) 3.2

Q) Tell me IC50 reported for O=Cc1ccccc1OP12=NP(Oc3ccccc3C=O)(Oc3ccccc3C=O)=NP(Oc3ccc4ccccc4c3)(=N1)OCCOCCOCCOCCO2 (stereo not drawn)
A) 2.55

Q) Tell me IC50 reported for ClCC/N=C\c1ccccc1OP12=NP(Oc3ccccc3/C=N\CCCl)(Oc3ccccc3/C=N\CCCl)=NP(Oc3ccc4ccccc4c3)(=N1)OCCOCCOCCOCCO2 (stereo not drawn)
A) 2.7

Q) Tell me IC50 reported for ClCC/N=C\c1ccccc1OP12=NP(Oc3ccccc3/C=N\CCCl)(=NP(Oc3ccccc3/C=N\CCCl)(Oc3ccccc3/C=N\CCCl)=N1)OCCOCCOCCOCCO2 (stereo not drawn)
A) 3.2
